Catalogue of reverse-splicing fitness readings, one per entry.
B1: Azoarcus group I ribozyme (parent)
chain: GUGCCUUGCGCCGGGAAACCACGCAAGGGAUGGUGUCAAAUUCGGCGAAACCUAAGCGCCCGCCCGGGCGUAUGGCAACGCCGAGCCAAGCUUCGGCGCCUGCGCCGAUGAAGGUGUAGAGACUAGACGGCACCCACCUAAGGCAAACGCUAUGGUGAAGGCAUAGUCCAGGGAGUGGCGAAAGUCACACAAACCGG

variants of: B1; assay: reverse-splicing fitness (ratio to wild type); higher = more active; in vitro selection; Mg2+ level not given
Recorded metric: reverse-splicing fitness

• C82G A111C A120C C150U U176A = 0.0157
• C82U A111G A120U A145U C150G C169A = 0.00272
• C82G A111U A120U A145U C150G C169A U176G = 0.00233
• C82U A111C A120C A145C C169A U176A = 0.0111
• C82U A111U A120C A145G C150G C169G U176G = 0.00574
• C82A A111U A120G A145G C150A U176C = 0.0209
• C82A A111G A120G C150G U176C = 0.00974
• C82U A111G A120C A145C C150G U176A = 0.00388
• C82G A111G A120C A145U U176G = 0.00776
• C82A A111C A145C C150U C169U U176A = 0.0133
• C82G A111G A120C A145G C150A C169G U176A = 0.02
• C82G A111U A145U U176A = 0.211
• A111G C150U U176G = 0.271
• C82U A111G A120G A145C C150A C169A U176A = 0.0114
• C82A A111U C169U U176A = 0.0152
• C82U A111U A120C A145G C150A C169G U176G = 0.00516
• C82U A145U C150A C169G U176G = 0.0051
• C82G A120U A145G C150U C169A U176A = 0.00578
• A111U A120C A145G C150A C169U U176A = 0.0208
• A111U A120G A145C C150G C169G U176G = 0.00359
• A111G A120U A145C C150G C169U U176C = 0.0023
• C82U A111C A120U A145G C169A U176C = 0.0035
